target: FGFR2-IIIb (human) (UniProt P21802); assay: SPR (Biacore T100), IgG captured by anti-human Fc, FGFR flowed
Sequence (P21802 other isoform, or with tags, fused parts or gaps limits assumed): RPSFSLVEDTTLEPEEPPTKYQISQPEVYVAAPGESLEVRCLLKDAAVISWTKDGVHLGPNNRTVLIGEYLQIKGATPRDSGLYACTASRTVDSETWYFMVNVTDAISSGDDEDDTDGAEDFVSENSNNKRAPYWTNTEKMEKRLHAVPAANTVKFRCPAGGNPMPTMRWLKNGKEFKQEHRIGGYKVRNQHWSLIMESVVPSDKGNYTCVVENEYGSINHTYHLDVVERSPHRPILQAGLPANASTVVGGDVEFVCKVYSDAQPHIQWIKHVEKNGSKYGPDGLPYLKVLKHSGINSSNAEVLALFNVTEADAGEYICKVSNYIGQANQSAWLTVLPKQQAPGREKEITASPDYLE
Field: label. Allowed values: MET (Kd < 2 nM) or NOT MET (Kd >= 2 nM).

Illustrative cases are given below, each with its answer.
BINDER | GROUP_LABEL
2B.1.55 (antibody, human IgG1, kappa, V domains shown) VH: EVQLVESGGGLVQPGGSLRLSCAASGFTFTSTGISWVRQAPGKGLEWVGRVDVFWGSTNYADSVKGRFTISADTSKNTAYLQMNSLRAEDTAVYYCARTYGIYDLYVDYTEYVMDYWGQGTLVTVSS VL: DIQMTQSPSSLSASVGDRVTITCRASQDVDTSLAWYKQKPGKAPKLLIYSASFLYSGVPSRFSGSGSGTDFTLTISSLQPEDFATYYCQQSTGHPQTFGQGTKVEIKR | NOT MET
2B.1.93 (antibody, human IgG1, kappa, V domains shown) VH: EVQLVESGGGLVQPGGSLRLSCAASGFTFTSTGISWVRQAPGKGLEWVGRIDNYWGSTNYADSVKGRFTISADTSKNTAYLQMNSLRAEDTAVYYCARTYGIYDLYVDYTEYVMDYWGQGTLVTVSS VL: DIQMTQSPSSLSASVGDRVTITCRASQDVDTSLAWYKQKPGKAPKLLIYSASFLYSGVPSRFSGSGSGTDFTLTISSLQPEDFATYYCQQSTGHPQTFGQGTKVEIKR | NOT MET

Incoming: Is 2 nM strictly greater than the binder's reported Kd? binder: 2B.1.88 (antibody, human IgG1, kappa, V domains shown) VH: EVQLVESGGGLVQPGGSLRLSCAASGFTFTSTGISWVRQAPGKGLEWVGRIWMFTGSTNYADSVKGRFTISADTSKNTAYLQMNSLRAEDTAVYYCARTYGIYDLYVDYTEYVMDYWGQGTLVTVSS VL: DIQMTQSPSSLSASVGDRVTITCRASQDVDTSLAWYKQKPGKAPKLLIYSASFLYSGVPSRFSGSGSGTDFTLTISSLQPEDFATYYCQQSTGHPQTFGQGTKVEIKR
Outgoing: MET

Incoming: API: query returns whether the binder falls strictly under 2 nM in Kd. Query: 2B.1.35 (antibody, human IgG1, kappa, V domains shown) VH: EVQLVESGGGLVQPGGSLRLSCAASGFTFTSTGISWVRQAPGKGLEWVGRWHPFRGSTNYADSVKGRFTISADTSKNTAYLQMNSLRAEDTAVYYCARTYGIYDLYVDYTEYVMDYWGQGTLVTVSS VL: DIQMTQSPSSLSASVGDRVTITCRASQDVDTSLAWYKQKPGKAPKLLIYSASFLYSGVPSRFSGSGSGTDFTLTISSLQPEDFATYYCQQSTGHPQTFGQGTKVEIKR
Outgoing: NOT MET

Incoming: Strictly below 2 nM: is that where Kd of 2B.1.95 (antibody, human IgG1, kappa, V domains shown) VH: EVQLVESGGGLVQPGGSLRLSCAASGFTFTSTGISWVRQAPGKGLEWVGRLIFFTGSTNYADSVKGRFTISADTSKNTAYLQMNSLRAEDTAVYYCARTYGIYDLYVDYTEYVMDYWGQGTLVTVSS VL: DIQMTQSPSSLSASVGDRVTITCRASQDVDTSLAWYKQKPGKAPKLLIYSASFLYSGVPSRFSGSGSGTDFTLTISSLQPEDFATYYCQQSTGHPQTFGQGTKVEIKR sits?
Outgoing: MET

Incoming: In the record for 2B.1.14 (antibody, human IgG1, kappa, V domains shown) VH: EVQLVESGGGLVQPGGSLRLSCAASGFTFTSTGISWVRQAPGKGLEWVGRLWYFDGSTNYADSVKGRFTISADTSKNTAYLQMNSLRAEDTAVYYCARTYGIYDLYVDYTEYVMDYWGQGTLVTVSS VL: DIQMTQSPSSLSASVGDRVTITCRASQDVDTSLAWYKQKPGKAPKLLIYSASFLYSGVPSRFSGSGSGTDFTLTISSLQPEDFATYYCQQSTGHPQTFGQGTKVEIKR , is Kd less than 2 nM?
Outgoing: MET

Incoming: Does this binder meet the criterion Kd < 2 nM? 2B.1.71 (antibody, human IgG1, kappa, V domains shown) VH: EVQLVESGGGLVQPGGSLRLSCAASGFTFTSTGISWVRQAPGKGLEWVGRVWMFDGSTNYADSVKGRFTISADTSKNTAYLQMNSLRAEDTAVYYCARTYGIYDLYVDYTEYVMDYWGQGTLVTVSS VL: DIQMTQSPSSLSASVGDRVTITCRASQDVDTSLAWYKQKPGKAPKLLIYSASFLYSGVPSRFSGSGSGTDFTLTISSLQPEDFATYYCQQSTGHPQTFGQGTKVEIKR
Outgoing: MET

Incoming: Please check: Kd for 2B.1.1 (antibody, human IgG1, kappa, V domains shown) VH: EVQLVESGGGLVQPGGSLRLSCAASGFTFTSTGISWVRQAPGKGLEWVGRYWAWDGSTNYADSVKGRFTISADTSKNTAYLQMNSLRAEDTAVYYCARTYGIYDLYVDYTEYVMDYWGQGTLVTVSS VL: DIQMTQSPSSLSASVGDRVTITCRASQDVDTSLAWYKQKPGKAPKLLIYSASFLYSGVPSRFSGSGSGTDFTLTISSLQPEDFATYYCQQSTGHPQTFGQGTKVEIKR , strictly under 2 nM or not?
Outgoing: MET

Incoming: Does the reported Kd of 2B.1.73 (antibody, human IgG1, kappa, V domains shown) VH: EVQLVESGGGLVQPGGSLRLSCAASGFTFTSTGISWVRQAPGKGLEWVGRMIFYNGSTNYADSVKGRFTISADTSKNTAYLQMNSLRAEDTAVYYCARTYGIYDLYVDYTEYVMDYWGQGTLVTVSS VL: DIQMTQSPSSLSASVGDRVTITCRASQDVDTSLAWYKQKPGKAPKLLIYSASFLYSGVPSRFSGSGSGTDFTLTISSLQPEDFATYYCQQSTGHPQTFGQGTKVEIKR stay below 2 nM?
Outgoing: MET

Incoming: In the record for 2B.1.74 (antibody, human IgG1, kappa, V domains shown) VH: EVQLVESGGGLVQPGGSLRLSCAASGFTFTSTGISWVRQAPGKGLEWVGRYHPFRGSTNYADSVKGRFTISADTSKNTAYLQMNSLRAEDTAVYYCARTYGIYDLYVDYTEYVMDYWGQGTLVTVSS VL: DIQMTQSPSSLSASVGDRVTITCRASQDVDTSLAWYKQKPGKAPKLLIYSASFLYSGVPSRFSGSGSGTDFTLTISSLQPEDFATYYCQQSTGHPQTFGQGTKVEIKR , is Kd less than 2 nM?
Outgoing: MET
